Would you kindly list pKd for each of these binders?
Target: T1, purified recombinant 161P2F10B extracellular domain (Tag5-161P2F10B ECD, amino acids 46-875) (human, UniProt O14638 46-875)
T1 construct: also called full length ECD
Test: SPR (BIAcore), MAb captured on chip, recombinant 161P2F10B injected, 1:1 fit;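 further: purified human MAbs immobilised by capture on a CM5 chip surface, about 150 RU of antibody per cycle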
pKd here: minus log base 10 of the concentration, concentration in moles per litre.

Query: // returns reported pKd for input H16-9.33 (antibody, V domains shown) VH: EVQLLESGPGLVKPSQTLSLTCAISGDSVSSNSAAWNWIRQSPSRGLEWLGRTYYRSKYYNAYPVSVKSRITINPDTSKNQFSLQLNSVTPEDTAVYYCAREAGGWFDPWGQGTLVTVSS VL: DIQMTQSPSSVSASVGDRVTITCRANQGIRSWLAWYQQKPGKAPKLLIYAASSLQSGVPSRFSGSGSGTDFTLTISSLQPEDFATYYCQQANSFPPTFGGGTKVEIKR
Reply: 8.41

Query: // returns reported pKd for input H16-7.8 (antibody, V domains shown, Entries hold the leader and a portion of the constant region) VH: QVQLQESGPGLVKPSQTLSLTCTVSGGSISSGGYYWSWIRQHPGKGLEWIGIIYYSGSTYYNPSLKSRVTISVDTSKNQFSLKLNSVTAADTAVFYCARVAIVTTIPGGMDVWGQGTTVTVSS VL: EIVLTQSPDFQSVTPKEKVTITCRASQSIGISLHWYQQKPDQSPKLLIKYASQSFSGVPSRFSGSGSGTDFTLTINSLEAEDAATYYCHQSRSFPWTFGQGTKVEIKR
Reply: 7.74

Query: // returns reported pKd for input Ha16-1(3,5)19 (antibody, V domains shown, Entries hold part of the leader and a portion of the constant region) VH: EVQLVQSGAEVKKPGESLKISCKGSGYRFTSYWIGWVRQMPGKGLEWMGIIYPGDSDTRYSPSFQGQVTISADKSISTAYLQWSSLKASDTAMYYCARKDYYYYAMDVWGQGTTVTVSS VL: QSALTQPASVSGSPGQSITISCTGTSSDVGRYNYVSWYQQHPGQAPKLMIYGISIRPSGVSPRFSGSKSGNTASLTISGLQAEDEADYYCSSHTSNSTLVVFAGGTKLTVLG
Reply: 8.77

From: patent US20090022663A1
